In this section, each of the molecules is paired with its reported IC50.
target-or-test-system: α-glucosidase enzyme (EC3.2.1.20, Saccharomyces cerevisiae) (Saccharomyces cerevisiae, UniProt P53341)
recorded-metric: IC50

molecule: COc1ccc(/C=N/NC(=O)c2c(O)c3ccccc3[nH]c2=O)cc1 [Compound 6i]
assay-value: 259 µM
//
molecule: O=C(N/N=C/c1cc([N+](=O)[O-])ccc1O)c1c(O)c2ccccc2[nH]c1=O [Compound 6m]
assay-value: 93.5 µM
//
molecule: O=C(N/N=C/c1ccccc1)c1c(O)nc2ccccc2c1O [Compound 6a]
assay-value: 383 µM
//
molecule: O=C(N/N=C/c1cccc(O)c1)c1c(O)c2ccccc2[nH]c1=O [Compound 6k]
assay-value: 196 µM
//
molecule: O=C(N/N=C/c1ccc(F)cc1)c1c(O)nc2ccccc2c1O [Compound 6c]
assay-value: 195 µM
//
molecule: COc1cc(/C=N/NC(=O)c2c(O)c3ccccc3[nH]c2=O)ccc1O [Compound 6o]
assay-value: 576 µM
//
molecule: Cc1ccc(/C=N/NC(=O)c2c(O)c3ccccc3[nH]c2=O)cc1 [Compound 6h]
assay-value: 137 µM
//
molecule: O=C(N/N=C/c1ccc(O)cc1O)c1c(O)c2ccccc2[nH]c1=O [Compound 6n]
assay-value: 188 µM
//
molecule: O=C(N/N=C/c1ccccc1F)c1c(O)c2ccccc2[nH]c1=O [Compound 6b]
assay-value: 247 µM
//
molecule: O=C(N/N=C/c1cc(Br)ccc1O)c1c(O)c2ccccc2[nH]c1=O [Compound 6l]
assay-value: 94.2 µM
//
molecule: O=C(N/N=C/c1ccc([N+](=O)[O-])cc1)c1c(O)c2ccccc2[nH]c1=O [Compound 6g]
assay-value: 120 µM
//
molecule: O=C(N/N=C/c1ccccc1O)c1c(O)c2ccccc2[nH]c1=O [Compound 6j]
assay-value: 155 µM
//
molecule: O=C(N/N=C/c1cccc(Br)c1)c1c(O)c2ccccc2[nH]c1=O [Compound 6e]
assay-value: 437 µM
//
molecule: O=C(N/N=C/c1ccc(Br)cc1)c1c(O)c2ccccc2[nH]c1=O [Compound 6f]
assay-value: 520 µM
//
molecule: O=C(N/N=C/c1ccc(Cl)cc1)c1c(O)c2ccccc2[nH]c1=O [Compound 6d]
assay-value: 132 µM

###

Below are compounds with their pKi as measured on α-glucosidase (Saccharomyces cerevisiae, UniProt P53341).
Sequence (P53341 whole entry): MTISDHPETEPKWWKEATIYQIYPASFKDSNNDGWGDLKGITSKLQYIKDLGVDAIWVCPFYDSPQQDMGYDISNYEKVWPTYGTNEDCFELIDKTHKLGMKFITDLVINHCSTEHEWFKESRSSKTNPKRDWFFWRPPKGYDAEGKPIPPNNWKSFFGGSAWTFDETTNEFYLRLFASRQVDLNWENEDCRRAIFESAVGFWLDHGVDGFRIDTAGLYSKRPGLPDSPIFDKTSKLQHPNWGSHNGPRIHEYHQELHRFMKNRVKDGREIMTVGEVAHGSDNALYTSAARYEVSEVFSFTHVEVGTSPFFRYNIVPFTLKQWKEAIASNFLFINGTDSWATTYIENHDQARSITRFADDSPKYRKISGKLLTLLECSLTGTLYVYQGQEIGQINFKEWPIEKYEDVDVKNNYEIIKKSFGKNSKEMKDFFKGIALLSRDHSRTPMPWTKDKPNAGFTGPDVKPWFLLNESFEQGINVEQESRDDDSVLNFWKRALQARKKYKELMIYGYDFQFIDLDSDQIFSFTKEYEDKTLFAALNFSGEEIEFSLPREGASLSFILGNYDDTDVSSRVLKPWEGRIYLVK
pKi: −log10 of the molar value.

compound: O=C(N/N=C/c1cc([N+](=O)[O-])ccc1O)c1c(O)c2ccccc2[nH]c1=O [Compound 6m]
pKi: 4.03

compound: O=C(N/N=C/c1cc(Br)ccc1O)c1c(O)c2ccccc2[nH]c1=O [Compound 6l]
pKi: 4.04

###

In this section, each of the molecules is paired with its reported melting point.

smiles-notation: O=C(N/N=C/c1ccccc1O)c1c(O)c2ccccc2[nH]c1=O
melting point: 177 to 179 °C
//
smiles-notation: COc1cc(/C=N/NC(=O)c2c(O)c3ccccc3[nH]c2=O)ccc1O
melting point: 193 to 195 °C
//
smiles-notation: O=C(N/N=C/c1ccc(Cl)cc1)c1c(O)c2ccccc2[nH]c1=O
melting point: 194 to 196 °C
//
smiles-notation: O=C(N/N=C/c1cc(Br)ccc1O)c1c(O)c2ccccc2[nH]c1=O
melting point: 171 to 173 °C
//
smiles-notation: O=C(N/N=C/c1ccc([N+](=O)[O-])cc1)c1c(O)c2ccccc2[nH]c1=O
melting point: 208 to 210 °C

###

smiles-notation: O=C(N/N=C/c1cccc(O)c1)c1c(O)c2ccccc2[nH]c1=O
melting point: 186 to 188 °C

smiles-notation: Cc1ccc(/C=N/NC(=O)c2c(O)c3ccccc3[nH]c2=O)cc1
melting point: 180 to 182 °C

smiles-notation: O=C(N/N=C/c1cccc(Br)c1)c1c(O)c2ccccc2[nH]c1=O
melting point: 187 to 189 °C

###

smiles-notation: O=C(N/N=C/c1cc([N+](=O)[O-])ccc1O)c1c(O)c2ccccc2[nH]c1=O
melting point: 198 to 200 °C
--
smiles-notation: O=C(N/N=C/c1ccc(Br)cc1)c1c(O)c2ccccc2[nH]c1=O
melting point: 179 to 181 °C
--
smiles-notation: O=C(N/N=C/c1ccc(O)cc1O)c1c(O)c2ccccc2[nH]c1=O
melting point: 185 to 187 °C
--
smiles-notation: COc1ccc(/C=N/NC(=O)c2c(O)c3ccccc3[nH]c2=O)cc1
melting point: 189 to 191 °C
--
smiles-notation: O=C(N/N=C/c1ccccc1F)c1c(O)c2ccccc2[nH]c1=O
melting point: 190 to 192 °C
